Target: Voltage-gated inwardly rectifying potassium channel KCNH2 (Homo sapiens)
Experiment: qHTS Assay for Small Molecule Inhibitors of the Human hERG Channel Activity (AID 588834);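 note: lower thallium flux fluorescence means stronger hERG block; nearly all actives have a fitted effect of over 50% in size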; note: potency is the fitted concentration of half-maximal effect
Details: U2OS BacMam hERG, FluxOR thallium flux fluorescence; series mostly up to 46.1 µM
Results filed as inconclusive are left out. Calls of active or inactive are those of the source. Calls come from the whole dose curve; as a rule, active = well fitted inhibition curve with a large enough effect; inconclusive = small, poorly fitted or top-dose-only effect; inactive = flat fitted curve, though single readings scatter.

>  <Compound>
CC(=O)OCC1=C(C(=O)[O-])N2C(=O)[C@@H](NC(=O)CCC[C@@H](N)C(=O)[O-])[C@H]2SC1.[Zn+2]

>  <Potency>
inactive

$$$$
>  <Compound>
COC(=O)c1ccccc1C(=O)OC

>  <Potency>
inactive

$$$$
>  <Compound>
CC(=O)/C=C/c1ccccc1

>  <Potency>
inactive

$$$$
>  <Compound>
c1ccc(Nc2ccc3ccccc3c2)cc1

>  <Potency>
25.1 µM (active)

$$$$
>  <Compound>
CCOC(=O)c1ccccc1N

>  <Potency>
inactive

$$$$
>  <Compound>
N[C@@H](Cn1cc(I)c(=O)[nH]c1=O)C(=O)O

>  <Potency>
inactive

$$$$
>  <Compound>
c1ccc(Nc2cccc3ccccc23)cc1

>  <Potency>
28.2 µM (active)

$$$$
>  <Compound>
C[N+]1(C)CCc2cc3c(cc2C1C1OC(=O)c2c1ccc1c2OCO1)OCO3 (stereo not given)

>  <Potency>
inactive

$$$$
>  <Compound>
COc1ccc2[nH]cc(CCN(C)C)c2c1

>  <Potency>
inactive

$$$$
>  <Compound>
N[C@H](CCCCCP(=O)(O)O)C(=O)O

>  <Potency>
inactive

$$$$
>  <Compound>
CP(=O)(O)CCCN

>  <Potency>
inactive

$$$$
>  <Compound>
OC1(c2ccc(Cl)cc2)CCN(Cc2c[nH]c3ccccc23)CC1

>  <Potency>
0.794 µM (active)

$$$$
>  <Compound>
COc1cc(CCN)ccc1O

>  <Potency>
inactive

$$$$
>  <Compound>
C[C@@H]1O[C@@H](O[C@H]2C[C@@H](O)[C@]3(CO)[C@@H]4C(CC[C@]3(O)C2)[C@@]2(O)CC[C@H](C3=CC(=O)OC3)[C@@]2(C)C[C@H]4O)[C@H](O)[C@H](O)[C@H]1O (stereo not given in full)

>  <Potency>
inactive

$$$$
>  <Compound>
O=Cc1ccccc1

>  <Potency>
inactive

$$$$
>  <Compound>
O=C(O)/C=C/C(=O)O

>  <Potency>
inactive

$$$$
>  <Compound>
C[C@@H](NCCc1ccc(O)cc1)[C@@H](O)c1ccc(O)cc1

>  <Potency>
7.94 µM (active)

$$$$
>  <Compound>
C[C@H](CCC(=O)O)[C@H]1CC[C@H]2[C@@H]3CC[C@@H]4C[C@H](O)CC[C@]4(C)[C@H]3CC[C@]12C

>  <Potency>
inactive

$$$$
>  <Compound>
COC(=O)c1cc2c(cn1)[nH]c1ccccc12

>  <Potency>
inactive

$$$$
>  <Compound>
CCOc1cc(C=O)ccc1O

>  <Potency>
inactive

$$$$

* * *

Molecular target: Cytochrome P450 2D6 (Homo sapiens) (UniProt P10635)
Sequence (P10635 whole entry, looked up): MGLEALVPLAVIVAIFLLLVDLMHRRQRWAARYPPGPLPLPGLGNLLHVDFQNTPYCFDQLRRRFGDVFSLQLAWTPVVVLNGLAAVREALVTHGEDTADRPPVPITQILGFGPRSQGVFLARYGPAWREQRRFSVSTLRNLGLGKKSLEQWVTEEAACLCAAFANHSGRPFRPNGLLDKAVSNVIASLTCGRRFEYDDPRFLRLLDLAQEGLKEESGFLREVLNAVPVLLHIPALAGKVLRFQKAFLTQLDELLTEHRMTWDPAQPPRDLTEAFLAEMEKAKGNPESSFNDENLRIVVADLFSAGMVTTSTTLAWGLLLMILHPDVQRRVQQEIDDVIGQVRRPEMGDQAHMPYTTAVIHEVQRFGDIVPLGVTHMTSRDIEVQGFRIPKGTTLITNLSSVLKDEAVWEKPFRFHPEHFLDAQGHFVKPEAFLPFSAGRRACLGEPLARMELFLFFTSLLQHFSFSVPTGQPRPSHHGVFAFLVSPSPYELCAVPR
Experiment: Cytochrome P450 family 2 subfamily D member 6 (CYP2D6) small molecule antagonists: luciferase biochemical (cell-free) qHTS assay (AID 1645840); note: nearly all actives have a fitted effect of over 55% in size
Conditions: P450-Glo CYP2D6 enzyme, luciferin luminescence, 1 h; series mostly up to 57.4 µM
Inconclusive results are not listed. Active and inactive are the calls of the source. Calls follow the shape of the dose curve; as a rule, active = well fitted inhibition curve with a large enough effect in the repeat runs; inconclusive = weak or mixed curves; inactive = flat fitted curve, though single readings scatter.
Classes used: active, inactive

>  <Compound>
NC(=O)[C@@H](CC1CC1)[C@@H](CCC(F)(F)F)C(=O)N[C@H]1N=C(c2ccccc2)c2cccc(F)c2NC1=O

>  <Assayed system>
Cytochrome P450 2D6 (Homo sapiens) (UniProt P10635)

>  <Class name>
inactive

$$$$
>  <Compound>
C[C@@H](CN1CCC(n2c(=O)[nH]c3cc(Br)ccc32)CC1)NC(=O)[C@@H]1C[C@H]1c1ccccc1

>  <Assayed system>
Cytochrome P450 2D6 (Homo sapiens) (UniProt P10635)

>  <Class name>
active

$$$$
>  <Compound>
O=S(=O)(c1ccccc1F)N1CCOc2c(N3CCNCC3)cccc21

>  <Assayed system>
Cytochrome P450 2D6 (Homo sapiens) (UniProt P10635)

>  <Class name>
inactive

$$$$
>  <Compound>
O=C(N1CCCCC1Cc1ccccc1)n1cc(-c2ccc(-c3ccccc3)cc2)nn1 (stereo not given)

>  <Assayed system>
Cytochrome P450 2D6 (Homo sapiens) (UniProt P10635)

>  <Class name>
inactive

$$$$
>  <Compound>
O=C(N[C@H]1CN2CCC1CC2)c1cc2cccc(Cl)c2s1

>  <Assayed system>
Cytochrome P450 2D6 (Homo sapiens) (UniProt P10635)

>  <Class name>
active

$$$$
